Values were extracted from ChEMBL document CHEMBL3885861.

Species: Rattus norvegicus
Assay: Open TG-GATES - Regimen: Single
Assay type: toxicity, organism-based, Sprague-Dawley
Design: regimen Single, gender Male, age 6 weeks
Settings: in vivo, po, 10 mg/kg, 6 h, tissue Plasma, route gavage, dose level Low
Known GLC of a selection of compounds
measurement-type: GLC

compound="CC(C)OC(=O)C(C)(C)Oc1ccc(C(=O)c2ccc(Cl)cc2)cc1 [FENOFIBRATE]" measurement_type=GLC reported_value="180.2 mg/dL"
compound=CC1=C(/C=C/C(C)=C/C=C/C(C)=C/CO)C(C)(C)CCC1 measurement_type=GLC reported_value="180 mg/dL"
compound=CN(C)CCCN1c2ccccc2CCc2ccccc21 measurement_type=GLC reported_value="183 mg/dL"
compound=CN(C)CCCN1c2ccccc2CCc2ccc(Cl)cc21 measurement_type=GLC reported_value="189.8 mg/dL"
compound=CN(C)CCN(Cc1cccs1)c1ccccn1 measurement_type=GLC reported_value="171.6 mg/dL"

###

Species on record: Rattus norvegicus
Test: Open TG-GATES - Regimen: Daily Repeat
Assay type: toxicity, organism-based, Sprague-Dawley
Set-up: regimen Daily Repeat, gender Male, age 6 weeks
Conditions: in vivo, po, 0 mg/kg, […], tissue Blood, route gavage, dose level Control, time 7 day
measurement-type: Mono (%)

compound=O=C(CCCN1CCC(O)(c2ccc(Cl)cc2)CC1)c1ccc(F)cc1 measurement_type=Mono unit_of_measure=% reported_value=4.8
compound=NNC(=O)c1ccncc1 measurement_type=Mono unit_of_measure=% reported_value=10.2
compound=NC(N)=Nc1nc(CSCCC(N)=NS(N)(=O)=O)cs1 measurement_type=Mono unit_of_measure=% reported_value=2.4
compound="COc1ccc2[nH]c([S+]([O-])Cc3ncc(C)c(OC)c3C)nc2c1 (stereo not given)" measurement_type=Mono unit_of_measure=% reported_value=3
compound=CN(C)CCCN1c2ccccc2CCc2ccccc21 measurement_type=Mono unit_of_measure=% reported_value=2.4

###

Species: Rattus norvegicus
Experiment: Open TG-GATES - Regimen: Single
Type: toxicity, organism-based, Sprague-Dawley
Design: regimen Single, gender Male, age 6 weeks
Settings: in vivo, po, 0 mg/kg, 9 h, route gavage, dose level Control
Here, each record is paired with measured TERMINAL_BW data.
measurement-type: TERMINAL_BW (g)

compound=NNC(=O)c1ccncc1 measurement_type=TERMINAL_BW reported_value=220.2
compound=Cc1ccc(C)c(OCCCC(C)(C)C(=O)O)c1 measurement_type=TERMINAL_BW reported_value=223.1
compound=CN1C(=O)CN=C(c2ccccc2)c2cc(Cl)ccc21 measurement_type=TERMINAL_BW reported_value=212.8
compound=COC1=CC(=O)C[C@@H](C)[C@]12Oc1c(Cl)c(OC)cc(OC)c1C2=O measurement_type=TERMINAL_BW reported_value=209.9
compound=COc1cc2c(c(OC)c1OC)-c1ccc(OC)c(=O)cc1[C@@H](NC(C)=O)CC2 measurement_type=TERMINAL_BW reported_value=218.9
compound="CCOc1ccc(NC(=O)CC(C)O)cc1 (stereo unspecified)" measurement_type=TERMINAL_BW reported_value=208.6

###

The entries below come with measured Lym values attached.
Species on record: Rattus norvegicus
Assay: Open TG-GATES - Regimen: Single
Assay type: toxicity, organism-based, Sprague-Dawley
Design: regimen Single, gender Male, age 6 weeks
Settings: in vivo, po, 300 mg/kg, 9 h, tissue Blood, route gavage, dose level Middle
measurement-type: Lym

compound="COc1ccc2[nH]c([S+]([O-])Cc3ncc(C)c(OC)c3C)nc2c1 (centres undefined) [OMEPRAZOLE]" measurement_type=Lym reported_value=76.6%
compound="CCOC(=O)CCC(=O)O[C@H]1[C@H](O[C@@H]2[C@@H](C)[C@H](O[C@H]3C[C@@](C)(OC)[C@@H](O)[C@H](C)O3)[C@@H](C)C(=O)O[C@H](CC)[C@@](C)(O)[C@H](O)[C@@H](C)C(=O)[C@H](C)C[C@@]2(C)O)O[C@H](C)C[C@@H]1N(C)C [ERYTHROMYCIN ETHYLSUCCINATE]" measurement_type=Lym reported_value=79%
compound="COC1=CC(=O)C[C@@H](C)[C@]12Oc1c(Cl)c(OC)cc(OC)c1C2=O [GRISEOFULVIN]" measurement_type=Lym reported_value=79.4%
compound="NC(N)=Nc1nc(CSCCC(N)=NS(N)(=O)=O)cs1 [FAMOTIDINE]" measurement_type=Lym reported_value=76.8%
